The measurements presented in this section are drawn from ChEMBL document CHEMBL4052617.

compounds and their reported MIC
- Test system: Bacillus subtilis
- assay.remarks: Antibacterial activity against Bacillus subtilis 168 after 18 hrs by Mueller-Hinton broth microdilution method
- Assay type: functional
- applied.conditions: subsp. subtilis str. 168, 18 h
parameter.measured: MIC (µg/mL)

- C[n+]1c2ccccc2c(Nc2ccccc2)c2[nH]c3ccccc3c21.[I-]: 6
- COc1ccccc1Nc1c2ccccc2[n+](C)c2c1[nH]c1ccccc12.[I-]: 4
- Cc1ccc(Nc2c3ccccc3[n+](C)c3c2[nH]c2ccccc23)cc1C.[I-]: 4
- COc1cccc(Nc2c3ccccc3[n+](C)c3c2[nH]c2ccccc23)c1.[I-]: 4
- Cc1ccccc1Nc1c2ccccc2[n+](C)c2c1oc1ccccc12.[I-]: 8
- Cc1ccc(Nc2c3ccccc3[n+](C)c3c2[nH]c2ccccc23)cc1F.[I-]: 4
- Cc1cc(F)ccc1Nc1c2ccccc2[n+](C)c2c1[nH]c1ccccc12.[I-]: 4
- Cc1cc(C)cc(Nc2c3ccccc3[n+](C)c3c2oc2ccccc23)c1.[I-]: 6
- Cc1cc(C)cc(Nc2c3ccccc3[n+](C)c3c2[nH]c2ccccc23)c1.[I-]: 4
- COc1cccc(Nc2c3ccccc3[n+](C)c3c2oc2ccccc23)c1.[I-]: 6
- CCOc1ccccc1Nc1c2ccccc2[n+](C)c2c1[nH]c1ccccc12.[I-]: 4
- COc1cccc(OC)c1C(=O)N[C@@H]1C(=O)N2[C@@H]1SC(C)(C)[C@@H]2C(=O)O [METHICILLIN]: 0.5
- CCc1ccc(Nc2c3ccccc3[n+](C)c3c2[nH]c2ccccc23)cc1.[I-]: 4
- CCOc1ccc(Nc2c3ccccc3[n+](C)c3c2oc2ccccc23)cc1.[I-]: 4
- C[n+]1c2ccccc2c(Nc2cccc(F)c2)c2oc3ccccc3c21.[I-]: 8
- C[n+]1c2ccccc2c(Nc2ccc(F)cc2)c2[nH]c3ccccc3c21.[I-]: 4
- CCOc1ccccc1Nc1c2ccccc2[n+](C)c2c1oc1ccccc12.[I-]: 6
- CCc1ccc(Nc2c3ccccc3[n+](C)c3c2oc2ccccc23)cc1.[I-]: 6
- Cc1ccc(Nc2c3ccccc3[n+](C)c3c2oc2ccccc23)cc1C.[I-]: 6

###

- System: Staphylococcus aureus
- assay.remarks: Antibacterial activity against Staphylococcus aureus ATCC 29213 after 18 hrs by cation adjusted Mueller-Hinton broth microdilution method
- Format: functional
- applied.conditions: ATCC 29213, 18 h
parameter.measured: MIC (µg/mL)

- COc1cccc(Nc2c3ccccc3[n+](C)c3c2[nH]c2ccccc23)c1.[I-]: 4
- Cc1ccc(Nc2c3ccccc3[n+](C)c3c2[nH]c2ccccc23)cc1F.[I-]: 4
- C[n+]1c2ccccc2c(Nc2ccc(F)cc2F)c2[nH]c3ccccc3c21.[I-]: 4
- C[n+]1c2ccccc2c(Nc2ccc(Cl)cc2)c2[nH]c3ccccc3c21.[I-]: 4
- CCOc1ccccc1Nc1c2ccccc2[n+](C)c2c1[nH]c1ccccc12.[I-]: 4
- C[n+]1c2ccccc2c(Nc2ccc(F)cc2)c2[nH]c3ccccc3c21.[I-]: 4
- C[n+]1c2ccccc2c(Nc2ccc(OC(F)(F)F)cc2)c2oc3ccccc3c21.[I-]: 4
- COc1ccccc1Nc1c2ccccc2[n+](C)c2c1[nH]c1ccccc12.[I-]: 4
- CCOc1ccc(Nc2c3ccccc3[n+](C)c3c2[nH]c2ccccc23)cc1.[I-]: 2
- Cc1cc(F)ccc1Nc1c2ccccc2[n+](C)c2c1oc1ccccc12.[I-]: 6
- COc1ccccc1Nc1c2ccccc2[n+](C)c2c1oc1ccccc12.[I-]: 6
- Cc1ccc(Nc2c3ccccc3[n+](C)c3c2oc2ccccc23)cc1.[I-]: 6
- Cc1cc(C)cc(Nc2c3ccccc3[n+](C)c3c2[nH]c2ccccc23)c1.[I-]: 4
- COc1cccc(OC)c1C(=O)N[C@@H]1C(=O)N2[C@@H]1SC(C)(C)[C@@H]2C(=O)O: 1
- C[n+]1c2ccccc2c(Nc2ccccc2)c2oc3ccccc3c21.[I-]: 8
- C[n+]1c2ccccc2c(Nc2ccc(F)cc2F)c2oc3ccccc3c21.[I-]: 6
- CCc1ccc(Nc2c3ccccc3[n+](C)c3c2[nH]c2ccccc23)cc1.[I-]: 4
- CCOc1ccc(Nc2c3ccccc3[n+](C)c3c2oc2ccccc23)cc1.[I-]: 4
- C[n+]1c2ccccc2c(Nc2ccccc2)c2[nH]c3ccccc3c21.[I-]: 6
- Cc1ccc(Nc2c3ccccc3[n+](C)c3c2[nH]c2ccccc23)cc1C.[I-]: 4
- C[n+]1c2ccccc2c(Nc2ccc(OC(F)(F)F)cc2)c2[nH]c3ccccc3c21.[I-]: 2
- C[n+]1c2ccccc2c(Nc2cccc(F)c2)c2oc3ccccc3c21.[I-]: 8
- COc1ccc(Nc2c3ccccc3[n+](C)c3c2[nH]c2ccccc23)cc1.[I-]: 2
- C[n+]1c2ccccc2c(Nc2ccc(Cl)cc2)c2oc3ccccc3c21.[I-]: 6
- Cc1ccc(Nc2c3ccccc3[n+](C)c3c2[nH]c2ccccc23)cc1.[I-]: 4
- Cc1cc(F)ccc1Nc1c2ccccc2[n+](C)c2c1[nH]c1ccccc12.[I-]: 4
- COc1ccc2cc3[n+](cc2c1OC)CCc1cc2c(cc1-3)OCO2.[Cl-] [BERBERINE CHLORIDE]: 128
- COc1ccc(Nc2c3ccccc3[n+](C)c3c2oc2ccccc23)cc1.[I-]: 4
